From: patent US11685719B2

Molecular target: p38a/PRAK (Homo sapiens (Human), UniProt Q16539)
Sequence (Q16539 whole entry): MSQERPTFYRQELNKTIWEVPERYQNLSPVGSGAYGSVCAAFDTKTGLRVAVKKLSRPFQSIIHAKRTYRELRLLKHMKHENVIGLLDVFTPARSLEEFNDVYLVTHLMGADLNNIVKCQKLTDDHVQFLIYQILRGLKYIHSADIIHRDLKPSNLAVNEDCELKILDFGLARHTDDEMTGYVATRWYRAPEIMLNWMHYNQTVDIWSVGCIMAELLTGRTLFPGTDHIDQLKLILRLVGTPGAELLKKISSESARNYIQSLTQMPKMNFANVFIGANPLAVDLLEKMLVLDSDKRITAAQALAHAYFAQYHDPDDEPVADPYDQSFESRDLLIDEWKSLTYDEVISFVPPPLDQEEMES
Experiment: biochemical
Conditions: 10-point 1:3 dilution, top dose 300 μM; 10 μM ATP, 2 h incubation; read-out: p38a/PRAK Enzyme pIC50 (converted)
Excerpt: Expression vectors of the recombinant MK2 and PRAK kinases were constructed by cloning of the codon optimized gene sequences of MK2 (Uniprot ID P49137, amino acid fragment F46-H400), or PRAK (Uniprot ID Q81W41, amino acid fragment M1-Q471) into pGEX-4T1 (GE) for over expression of these kinases with N-terminal GST-tag. […]
molecules and their reported IC50
readout.name: IC50

INSERT INTO assay_data (molecule, value_measured) VALUES
  ('Cc1cnc(-n2cncc(C(C)(C)O)c2=O)cc1-n1c(C)cc(OCc2ncc(F)cc2F)c(Cl)c1=O (single isomer, unassigned) [Example 10B]', '> 316 µM'),
  ('Cc1cnc(-n2cc(C(C)(C)O)ccc2=O)cc1-n1c(C)cc(OCc2ncc(F)cc2F)c(Cl)c1=O (single isomer, unassigned) [Example 13A]', '> 316 µM'),
  ('[2H]C([2H])(Oc1cc(C)n(-c2cc(-n3ccc(F)c(C(C)(C)O)c3=O)ncc2C)c(=O)c1Cl)c1ncc(F)cc1F (single isomer, unassigned) [Example 26B]', '> 316 µM');
